Reference source for all entries: patent US7008666B2

ASSAY TARGET: Myeloperoxidase (Homo sapiens, UniProt P05164)
Construct: And Myeloperoxidase Activity Of Human Neutrophils In Vitro; endogenous in cells
Sequence (P05164 279-745 limits assumed): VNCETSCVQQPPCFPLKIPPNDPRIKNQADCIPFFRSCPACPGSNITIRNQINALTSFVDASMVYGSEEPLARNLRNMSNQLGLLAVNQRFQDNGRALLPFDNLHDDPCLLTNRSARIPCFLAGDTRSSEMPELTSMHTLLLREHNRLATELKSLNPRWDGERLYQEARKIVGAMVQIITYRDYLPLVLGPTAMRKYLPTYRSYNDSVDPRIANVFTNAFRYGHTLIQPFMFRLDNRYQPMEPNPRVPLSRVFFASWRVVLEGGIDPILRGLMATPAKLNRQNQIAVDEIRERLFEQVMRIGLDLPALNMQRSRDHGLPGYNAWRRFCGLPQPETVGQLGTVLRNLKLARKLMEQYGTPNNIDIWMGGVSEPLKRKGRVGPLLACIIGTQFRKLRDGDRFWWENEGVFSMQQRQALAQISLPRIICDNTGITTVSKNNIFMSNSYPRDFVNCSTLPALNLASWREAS
Sequence (P05164 165-273 limits assumed): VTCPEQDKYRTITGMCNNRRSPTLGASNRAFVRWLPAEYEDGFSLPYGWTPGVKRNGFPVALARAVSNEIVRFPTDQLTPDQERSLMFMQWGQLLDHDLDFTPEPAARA
ASSAY EXPLANATION: Myeloperoxidase activity, tetramethylbenzidine oxidation
SETTINGS: human neutrophils in vitro
PROPERTY: IC50 (µM)

Take a look at these entries with their results.
MOLECULE	ASSAY TARGET	IC50, µM
CN(C)CCOc1ccc(/C(=C(/CCCl)c2ccccc2)c2ccc(O)cc2)cc1 [4-OH-toremifene, reference compound]	Myeloperoxidase (Homo sapiens, UniProt P05164)	54
COc1cc(C[C@H]2COC(=O)[C@@H]2Cc2ccc(O)c(OC)c2)ccc1O [Matairesinol, matairesinol]	Myeloperoxidase (Homo sapiens, UniProt P05164)	44.5

1: COc1cc(CC2C(=O)OCC2C(O)c2ccc(O)c(OC)c2)ccc1O (stereo not shown) [Hydroxymatairesinol, hydroxymatairesinol]
2: CC(=O)C(=Cc1cc(O)c(O)c([N+](=O)[O-])c1)C(C)=O [Nitecapone, nitecapone, reference compound]
Query: Consider 1 and 2 . Which of these has its IC50 at a higher number? # reply format: chosen label
Reply: 1
(1: 6.8 µM, 2: 2.3 µM)
